Data origin: patent US6706732B1

The compounds listed here are annotated with their melting point.

Example cases with answers are listed next.
{"COMPOUND": "Cc1ccc(F)cc1C1CC(=NNC(=N)N)c2c(C)ccnc2C1.Cl (stereo not shown) [Compound E]", "melting point": "192 to 198 °C"}
{"COMPOUND": "Cc1cc(C)c2c(n1)CC(c1cc(F)ccc1C)CC2=NNC(=N)N.Cl (stereo not shown)", "melting point": "201 to 203 °C"}
{"COMPOUND": "Cc1ccnc2c1C(=NNC(=N)N)CC(c1ccccc1Cl)C2.Cl (stereo not shown)", "melting point": "204 °C (dec.)"}
{"COMPOUND": "Cc1ccnc2c1C(=NNC(=N)N)CC(c1cc(F)ccc1Cl)C2.Cl (stereo not shown)", "melting point": "268 °C (dec.)"}
{"COMPOUND": "Cc1ccnc2c1C(=NNC(=N)N)CC(c1cc(F)ccc1F)C2.Cl (stereo not shown)", "melting point": "290 °C (dec.)"}

# melting point (compound: CS(=O)(=O)O.Cc1ccnc2c1C(=NNC(=N)N)CC(c1ccccc1Cl)C2 (single isomer, unassigned; (-)) [Compound B] ) is 194 to 195 °C

Short answer for CS(=O)(=O)O.Cc1ccnc2c1C(=NNC(=N)N)CC(c1cc(F)ccc1Cl)C2 (stereo not shown) [Compound I] : melting point was 206 to 209 °C

Given item CS(=O)(=O)O.Cc1ccnc2c1C(=NNC(=N)N)CC(c1cc(F)ccc1Cl)C2 (stereo not shown) [Compound H] , the value recorded as its melting point is 209 to 212 °C

Record summary for Cc1ccc(F)cc1C1CC(=NNC(=N)N)c2c(C)ccnc2C1.Cl (stereo not shown) [Compound C] : reported melting point = 202 to 205 °C

For reference, reported melting point for CS(=O)(=O)O.Cc1ccc(F)cc1C1CC(=NNC(=N)N)c2c(C)ccnc2C1 (stereo not shown) stands at 202 to 204 °C
